Where do these numbers come from? They come from patent US10221163B2.

- study_system: IMP-1 (Serratia marcescens)
- Sequence (P52699 whole entry, looked up, species assumed): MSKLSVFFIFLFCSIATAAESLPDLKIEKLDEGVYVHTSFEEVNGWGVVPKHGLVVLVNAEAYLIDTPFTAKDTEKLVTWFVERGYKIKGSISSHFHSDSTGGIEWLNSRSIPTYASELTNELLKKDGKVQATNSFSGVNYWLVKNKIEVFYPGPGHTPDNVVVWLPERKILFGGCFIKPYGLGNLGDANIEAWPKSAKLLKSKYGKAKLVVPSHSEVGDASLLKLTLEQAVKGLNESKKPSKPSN
- assay_overview: biochemical
- Format: biochemical
- condition_description: fluorescence assay, CCF2-FA substrate, 2 pM enzyme, 2 hours at 25° C.; read-out: IMP-1 IC50
pIC50: −log10 of the molar value.
readout_name: pIC50

>>> reading("Nc1ccc(-c2ccc(S(=O)(=O)NC[C@@H](N)CO)c(S(N)(=O)=O)c2-c2nn[nH]n2)cn1")
9.23
>>> reading("Nc1nc2c(-c3ccc(S(=O)(=O)N4CC[C@@H](N)C4)c(S(N)(=O)=O)c3-c3nnn[nH]3)cccc2s1")
8.89
>>> reading("NC[C@@H](O)CNS(=O)(=O)c1ccc(-c2cccc3[nH]c(N)nc23)c(-c2nn[nH]n2)c1S(N)(=O)=O")
9.17
>>> reading("CN1CC[C@@H](CNS(=O)(=O)c2ccc(-c3cccc4sc(N)nc34)c(-c3nnn[nH]3)c2S(N)(=O)=O)C1")
9.71
>>> reading("Nc1ncc(-c2cc(-c3ccc(S(=O)(=O)N[C@@H]4CCNC4)c(S(N)(=O)=O)c3-c3nnn[nH]3)ccn2)[nH]1")
8.40
>>> reading("NCC(CN)NS(=O)(=O)c1ccc(-c2ccnc(N)c2)c(-c2nn[nH]n2)c1S(N)(=O)=O")
7.75
>>> reading("NCCNS(=O)(=O)c1ccc(-c2cccc3cn[nH]c23)c(-c2nn[nH]n2)c1S(N)(=O)=O")
9.77

---

- study_system: VIM-1 (Pseudomonas aeruginosa (strain ATCC 15692 / DSM 22644 / CIP 104116 / JCM 14847 / LMG 12228 / 1C / PRS 101 / PAO1), UniProt A0A0F7KYQ8)
- assay_overview: biochemical
- condition_description: fluorescence assay, CCF2-FA substrate, 30 pM enzyme, 2 hours at 25° C.; read-out: VIM-1 IC50
readout_name: IC50 (nM)

>>> reading("Cc1ccc(-c2ccc(S(N)(=O)=O)c(S(N)(=O)=O)c2-c2nn[nH]n2)c2nc(N)sc12")
0.0915
>>> reading("C[C@@H](N)c1nc2c(-c3ccc(S(=O)(=O)N[C@@H]4CCNC4)c(S(N)(=O)=O)c3-c3nn[nH]n3)cccc2[nH]1")
0.124
>>> reading("NCCNc1cc(-c2ccc(S(=O)(=O)NCCO)c(S(N)(=O)=O)c2-c2nn[nH]n2)ccn1")
0.49
>>> reading("NC[C@@H](CO)NS(=O)(=O)c1ccc(-c2cccc3[nH]c(N)nc23)c(-c2nnn[nH]2)c1S(N)(=O)=O")
0.168
>>> reading("Nc1nc2c(-c3ccc(S(=O)(=O)NC4CNC4)c(S(N)(=O)=O)c3-c3nn[nH]n3)cccc2[nH]1")
0.149
>>> reading("Nc1nc2c(-c3ccc(S(=O)(=O)N[C@@H]4CCNC4)c(S(N)(=O)=O)c3-c3nnn[nH]3)cccc2s1")
0.257
>>> reading("CN(C)CCNS(=O)(=O)c1ccc(-c2cccc3sc(N)nc23)c(-c2nnn[nH]2)c1S(N)(=O)=O")
0.233
>>> reading("C[C@H](N)CNS(=O)(=O)c1ccc(-c2cccc3[nH]c(N)nc23)c(-c2nn[nH]n2)c1S(N)(=O)=O")
0.189
>>> reading("Nc1ccc(-c2ccc(S(=O)(=O)N[C@H]3CN[C@H](CO)C3)c(S(N)(=O)=O)c2-c2nn[nH]n2)cn1")
0.177
>>> reading("CS(=O)(=O)Nc1ccc(-c2ccc(S(=O)(=O)N[C@@H]3CCNC3)c(S(N)(=O)=O)c2-c2nnn[nH]2)cc1")
0.105
>>> reading("CC(C)(N)CNS(=O)(=O)c1ccc(-c2cccc3sc(N)nc23)c(-c2nnn[nH]2)c1S(N)(=O)=O")
0.197
>>> reading("NCCNc1cc(-c2ccc(S(=O)(=O)N[C@@H]3CCNC3)c(S(N)(=O)=O)c2-c2nn[nH]n2)ccn1")
0.132
>>> reading("NC[C@H](CO)NS(=O)(=O)c1ccc(-c2cccnc2N)c(-c2nn[nH]n2)c1S(N)(=O)=O")
0.222
>>> reading("CN1CC(NS(=O)(=O)c2ccc(-c3cccc4[nH]c(N)nc34)c(-c3nn[nH]n3)c2S(N)(=O)=O)C1")
0.168
